Tested on: Beta-2 adrenergic receptor (Homo sapiens) (UniProt P07550)
Sequence (P07550 whole entry, looked up): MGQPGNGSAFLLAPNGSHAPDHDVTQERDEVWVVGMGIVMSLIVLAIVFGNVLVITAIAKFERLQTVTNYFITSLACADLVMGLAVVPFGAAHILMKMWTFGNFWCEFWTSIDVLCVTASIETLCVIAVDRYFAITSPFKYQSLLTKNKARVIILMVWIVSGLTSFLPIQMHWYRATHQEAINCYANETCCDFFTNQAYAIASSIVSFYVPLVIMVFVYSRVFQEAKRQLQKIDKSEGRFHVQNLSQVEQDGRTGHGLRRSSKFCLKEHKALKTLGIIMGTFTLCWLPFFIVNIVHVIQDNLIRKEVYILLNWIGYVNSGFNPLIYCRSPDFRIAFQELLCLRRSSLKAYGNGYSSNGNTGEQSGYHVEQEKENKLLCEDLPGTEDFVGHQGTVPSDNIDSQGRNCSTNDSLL
Measurement notes: Adrenergic beta2 receptor (ADRB2) small molecule antagonists, cell-based qHTS assay (AID 1963592); also: nearly all actives have a fitted effect of over 50% in size
Condition info: CHO-ADRB2 cells, isoproterenol-stimulated cAMP HTRF ratio, 0.5 h; series mostly up to 92.4 µM
Inconclusive results are not listed. Activity calls are given as the source filed them. Calls follow the shape of the full dose curve.
Returns: one label drawn from T = active, F = inactive

1. C1CCC2=NCCCN2CC1 ... F
2. COC(=O)Nc1nc2ccc(C(=O)c3cccs3)cc2[nH]1 ... F
3. CC(CN)CCCN (stereo not drawn) ... F
4. c1ccc2c(c1)-c1ccc3ccc4cccc5cc-2c1c3c45 ... F
5. N[C@@H](CS)C(=O)O ... F
6. CCCCCCCOC(=O)c1ccc(O)cc1 ... F
7. CCC1OCC(COc2ccc(Oc3ccccc3)cc2)O1 (stereo not drawn) ... F
8. Cc1ccc(Nc2nccc(N(C)c3ccc4c(C)n(C)nc4c3)n2)cc1S(N)(=O)=O ... T
9. COc1nc(C)nc(Cl)c1NC1=NCCN1 ... F
10. CC(=O)OCC(=O)[C@H]1CC[C@H]2[C@@H]3CCC4=CC(=O)CC[C@]4(C)[C@H]3CC[C@]12C ... F

What was the test verdict on NCCc1cnc[nH]1 ?
F

What was the test verdict on C[C@@H]1C[C@H]2[C@@H]3CCC4=CC(=O)C=C[C@]4(C)[C@@]3(F)[C@@H](O)C[C@]2(C)[C@@]1(O)C(=O)COC(=O)c1ccncc1 ?
F

What was the test verdict on O=c1cc(O)c(Cl)c[nH]1 ?
F

* * *

Measurement notes: p53 small molecule agonists, cell-based qHTS assay (AID 1963582); also: % is scaled to controls: 0 for no effect and ±100 for the full control effect
Condition info: HCT-116 p53RE-bla reporter, beta-lactamase FRET ratio, 16 h; series mostly up to 66 µM
Excerpt: National Center for Advancing Translational Sciences [NCATS] Division of Preclinical Innovation [DPI] U.S. Environmental Protection Agency [EPA] National Institutes of Environmental Health Sciences [NIEHS] National Toxicology Program [NTP] U.S. Food and Drug Administration [FDA] p53, a tumor suppressor protein, is activated following cellular insult, including DNA damage and other cellular stresses. […] The activation of the reporter gene under culture conditions can be detected by fluorescence intensity. […]
Results filed as inconclusive are left out. The source made the active and inactive calls. Calls come from the whole dose curve; as a rule, active = well fitted activation curve with a large enough effect in the signal ratio in the repeat runs (not every such curve was filed as active); inconclusive = weak or mixed curves; inactive = flat fitted curve, though single readings scatter; the % refers to the signal ratio.
Measure name: activation

// solved cases for activation follow
1. CCCC(=O)OCCc1ccccc1 ... inactive
2. C[C@@H](N)C(=O)O ... inactive
3. Cc1onc(-c2c(Cl)cccc2Cl)c1C(=O)N[C@@H]1C(=O)N2[C@@H]1SC(C)(C)[C@@H]2C(=O)O ... inactive
4. CN(C)[C@@H]1C(=O)C(C(N)=O)=C(O)[C@@]2(O)C(=O)C3=C(O)c4c(O)cccc4C[C@H]3C[C@@H]12 ... inactive
5. CN(C)C(=O)NC1(c2ccccc2)CCN(CCC[C@]2(c3ccc(Cl)c(Cl)c3)CCCN(C(=O)c3ccccc3)C2)CC1 ... -4.21% [at 13.5 µM] (inactive)

Proceed to the following item.
Please list activation recorded for the molecule O=C(c1ccccc1)c1cc(Cl)ccc1O
inactive

* * *

Measurement notes: p53 small molecule agonists, cell-based qHTS assay with human liver microsomes (AID 1963577);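 also: p53 response element beta-lactamase reporter cells with liver microsomes plus NADPH; % is scaled to controls: 0 for no effect and ±100 for the full control effect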
Condition info: HCT-116 p53RE-bla with human liver microsomes, ratio, 16 h; series mostly up to 66 µM
Inconclusive results are not listed. Calls of active or inactive are those of the source. Calls come from the whole dose curve.
Measure name: activation

1) c1ccc(OCc2ccc(CCCN3CCOCC3)cc2)cc1 ... inactive
2) Cc1cccc(O)c1N ... inactive
3) C[C@@H]1C[C@H]2O[C@@]3(O[C@@H]2C(C)(C)O)[C@H](O)[C@@]2(C)[C@@H]4CC[C@H]5C(C)(C)[C@@H](O[C@@H]6OC[C@@H](O)[C@H](O)[C@H]6O)CC[C@@]56C[C@@]46CC[C@]2(C)[C@@H]13 ... inactive
4) CC(C)(C)c1csc(-c2cc3cc(OCc4ccccc4CC(=O)O)ccc3o2)n1 ... inactive
